All values here come from patent US20210347873A1.

Can you tell me OD450 nm for the items I'm about to list?
- testedOn: T1, human APRIL protein (human, UniProt O75888 105-250, limits assumed)
- T1 construct: Bought protein; also called recombinant APRIL protein
- T1 sequence (looked up): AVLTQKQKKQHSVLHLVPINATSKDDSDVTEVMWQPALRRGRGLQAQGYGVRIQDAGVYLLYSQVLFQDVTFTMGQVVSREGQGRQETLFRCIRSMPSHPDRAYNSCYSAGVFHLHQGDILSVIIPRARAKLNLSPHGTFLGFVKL
- experimentSummary: ELISA, coated APRIL; antibody 0.107 nM
One number for each entry.

See these solved cases before continuing.
- binder: "20D1B6E9E5 (antibody, V domains shown) VH: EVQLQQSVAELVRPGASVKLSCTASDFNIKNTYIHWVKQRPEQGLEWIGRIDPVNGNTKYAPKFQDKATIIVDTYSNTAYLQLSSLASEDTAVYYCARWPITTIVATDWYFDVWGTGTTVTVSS VL: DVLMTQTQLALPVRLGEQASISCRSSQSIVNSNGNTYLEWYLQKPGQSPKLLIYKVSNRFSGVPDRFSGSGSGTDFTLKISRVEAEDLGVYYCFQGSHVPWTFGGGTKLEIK"
  OD450 nm: 0.0543
- binder: "78C11D2D12 (antibody, V domains shown, Mouse hybridoma antibody purified on Protein G) VH: QVQLQQSGAELVRPGTSVKISCKASGYAFTNYWLGWVKQRPGHGLEWIGDIYPGSGNTYYNEKFKGKATLTADKSSSTAYMQLSSLTSEDSAVFFCAAYLYAMDYWGQGTSVTVSS VL: QIVLTQSPAIMSASPGEKVTITCSASSSVSYMHWFQQKPGTSPKLWIYSASNLASGVPARFSGSGSGTSYSLTISRMEAEDAATYYCQQRGSYPFTFGSGTKLEIK"
  OD450 nm: 0.0549
- binder: "97E7B3F2 (antibody, V domains shown) VH: EVQLQQSGPELVKSGASVKISCKASGYTFTDHKMHWVKQSHGKSLEWIGYISPYNGGTGYNQKFKSKVTLTVDISSSTAYMELRSLTSEDSAVYYCARWGFYDVMDSWGQGTSVTVSS VL: DVLLTQTPLSLPVSLGDQASISCRSSQTIVHIIGDTYLEWYLQKPGQSPKLLIYKVSNRFSGVPDRFSGSGAGTDFTLKISRVEAEDLGVYYCFQGSHVPRTFGGGTKLEIK"
  OD450 nm: 0.0705
- binder: "97A3C2H4 (antibody, V domains shown, Mouse hybridoma antibody purified on Protein G) VH: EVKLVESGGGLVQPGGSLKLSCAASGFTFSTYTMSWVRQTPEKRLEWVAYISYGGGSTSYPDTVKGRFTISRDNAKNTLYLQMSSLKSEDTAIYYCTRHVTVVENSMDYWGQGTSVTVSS VL: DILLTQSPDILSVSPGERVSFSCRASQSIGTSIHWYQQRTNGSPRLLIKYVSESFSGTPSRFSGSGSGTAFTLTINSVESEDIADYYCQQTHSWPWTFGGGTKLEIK"
  OD450 nm: 0.0561

Now consider the entry below.
Given the entry 35E6F7C3 (antibody, V domains shown, Mouse hybridoma antibody purified on Protein G) VH: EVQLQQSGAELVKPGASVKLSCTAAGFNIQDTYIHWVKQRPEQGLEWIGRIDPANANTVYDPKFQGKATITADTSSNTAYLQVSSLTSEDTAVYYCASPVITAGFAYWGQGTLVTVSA VL: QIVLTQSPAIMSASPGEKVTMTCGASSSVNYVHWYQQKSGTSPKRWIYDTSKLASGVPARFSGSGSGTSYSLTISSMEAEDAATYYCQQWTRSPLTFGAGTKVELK , report its measured OD450 nm.
0.0537
